Measured −TΔS accompanies every entry in the list below.
Tested On: Link_TSG6 (Homo sapiens)
Construct: made in house
Sequence (P98066 36-129 limits assumed): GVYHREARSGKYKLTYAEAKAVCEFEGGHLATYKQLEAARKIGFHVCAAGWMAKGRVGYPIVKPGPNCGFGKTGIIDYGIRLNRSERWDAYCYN
Assay Text: ITC of HA oligosaccharides binding to Link_TSG6
Stated Conditions: Table 1; ITC, 25 °C, 5 mM MES pH 6.0; mean ± SEM

{"Compound Structure String": "CC(=O)N[C@H]1[C@H](O[C@H]2[C@H](O)[C@@H](O)[C@H](O[C@H]3[C@H](O)[C@@H](CO)O[C@@H](O[C@H]4[C@H](O)[C@@H](O)[C@H](O[C@@H]([C@H](O)[C@H](O)CO)[C@H](CNc5ccc(C(=O)O)cc5)NC(C)=O)O[C@@H]4C(=O)O)[C@@H]3NC(C)=O)O[C@@H]2C(=O)O)O[C@H](CO)[C@@H](O)[C@@H]1O[C@@H]1O[C@H](C(=O)O)[C@@H](O)[C@H](O)[C@H]1O", "−TΔS, kcal/mol": -0.83}
{"Compound Structure String": "CC(=O)N[C@H]1[C@H](O[C@H]2[C@H](O)[C@@H](O)[C@H](O[C@H]3[C@H](O)[C@@H](CO)O[C@@H](O[C@H]4[C@H](O)[C@@H](O)[C@H](O[C@H]5[C@H](O)[C@@H](CO)O[C@@H](O[C@H]6[C@H](O)[C@@H](O)[C@H](O[C@@H]([C@H](O)[C@H](O)CO)[C@H](CNc7ccc(C(=O)O)cc7)NC(C)=O)O[C@@H]6C(=O)O)[C@@H]5NC(C)=O)O[C@@H]4C(=O)O)[C@@H]3NC(C)=O)O[C@@H]2C(=O)O)O[C@H](CO)[C@@H](O)[C@@H]1O[C@@H]1O[C@H](C(=O)O)[C@@H](O)[C@H](O)[C@H]1O", "−TΔS, kcal/mol": 3.17}

----------
Tested On: recombinant human TSG-6 (Homo sapiens, UniProt P19827+P98066)
Construct: TSG-6–mediated HC-transfer assays (using full-length TSG6); purchased R&D Systems
Sequence (P98066 18-277): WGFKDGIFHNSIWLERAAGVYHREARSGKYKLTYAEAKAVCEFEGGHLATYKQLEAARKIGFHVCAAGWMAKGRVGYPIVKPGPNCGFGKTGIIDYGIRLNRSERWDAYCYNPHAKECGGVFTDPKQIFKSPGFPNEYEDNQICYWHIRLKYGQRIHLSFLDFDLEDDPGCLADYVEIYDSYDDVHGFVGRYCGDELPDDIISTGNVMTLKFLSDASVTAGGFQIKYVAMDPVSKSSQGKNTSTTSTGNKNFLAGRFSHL
Sequence (P19827 35-672 limits assumed): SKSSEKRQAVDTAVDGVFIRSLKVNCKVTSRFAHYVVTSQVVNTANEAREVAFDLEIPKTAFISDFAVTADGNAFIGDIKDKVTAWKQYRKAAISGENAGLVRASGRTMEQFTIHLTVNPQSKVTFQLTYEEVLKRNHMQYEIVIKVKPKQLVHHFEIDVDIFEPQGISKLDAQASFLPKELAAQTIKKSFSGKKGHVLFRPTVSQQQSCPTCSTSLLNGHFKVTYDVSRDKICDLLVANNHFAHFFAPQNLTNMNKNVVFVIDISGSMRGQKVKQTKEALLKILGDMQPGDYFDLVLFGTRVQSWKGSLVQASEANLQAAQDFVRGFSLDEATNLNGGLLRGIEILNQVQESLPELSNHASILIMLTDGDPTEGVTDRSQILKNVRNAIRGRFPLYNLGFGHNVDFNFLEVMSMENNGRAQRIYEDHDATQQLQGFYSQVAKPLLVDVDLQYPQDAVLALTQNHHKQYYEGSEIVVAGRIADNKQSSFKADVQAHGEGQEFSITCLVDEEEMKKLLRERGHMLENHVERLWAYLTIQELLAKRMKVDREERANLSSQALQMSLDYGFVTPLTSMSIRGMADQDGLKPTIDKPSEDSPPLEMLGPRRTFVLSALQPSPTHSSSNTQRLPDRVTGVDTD
Assay Text: In vitro HC-transfer assay (IαI + rhTSG-6, Western blot anti-HC1)
Type: biochemical
Stated Conditions: Table 6; 15 μM HA, 1.8 μM IαI, rhTSG-6, 2 h at 37 °C
Measured Endpoint: Substrate for HC transfer

{"Compound": "CC(=O)N[C@H]1[C@H](O[C@H]2[C@H](O)[C@@H](O)[C@H](O[C@@H]([C@H](O)[C@H](O)CO)[C@H](CNc3cccc(C(=O)O)c3)NC(C)=O)O[C@@H]2C(=O)O)O[C@H](CO)[C@@H](O)[C@@H]1O[C@@H]1O[C@H](C(=O)O)[C@@H](O)[C@H](O)[C@H]1O", "Assay Value": "No"}
{"Compound": "CC(=O)N[C@H]1[C@H](O[C@H]2[C@H](O)[C@@H](O)[C@H](O[C@H]3[C@H](O)[C@@H](CO)O[C@@H](O[C@H]4[C@H](O)[C@@H](O)[C@H](O[C@H]5[C@H](O)[C@@H](CO)OC(O)[C@@H]5NC(C)=O)O[C@@H]4C(=O)O)[C@@H]3NC(C)=O)O[C@@H]2C(=O)O)O[C@H](CO)[C@@H](O)[C@@H]1O[C@@H]1O[C@H](C(=O)O)[C@@H](O)[C@H](O)[C@H]1O (stereo partly drawn) [HA6^AN, reference compound]", "Assay Value": "No"}
{"Compound": "CC(=O)N[C@H]1[C@H](O[C@H]2[C@H](O)[C@@H](O)[C@H](O[C@H]3[C@H](O)[C@@H](CO)O[C@@H](O[C@H]4[C@H](O)[C@@H](O)[C@H](O[C@H]5[C@H](O)[C@@H](CO)O[C@@H](O[C@H]6[C@H](O)[C@@H](O)[C@H](O[C@@H]([C@H](O)[C@H](O)CO)[C@H](CNc7ccccc7C(=O)O)NC(C)=O)O[C@@H]6C(=O)O)[C@@H]5NC(C)=O)O[C@@H]4C(=O)O)[C@@H]3NC(C)=O)O[C@@H]2C(=O)O)O[C@H](CO)[C@@H](O)[C@@H]1O[C@@H]1O[C@H](C(=O)O)[C@@H](O)[C@H](O)[C@H]1O", "Assay Value": "Yes"}
